- Test system: Cricetinae gen. sp.
- Experiment Notes: Ability to protect microvascular damages in ischemia/reperfusion (in vivo) was determined by measuring the inhibition of leaky sites, 30-min after the start of reperfusion at 30 mg/kg
- Assay type: functional, Cricetulus griseus
- Measurement Context: 0.5 h
Readout Label: inhibition in vivo at 30 mg/kg (%)
Respond numerically; units are % and should not be typed.

## Input Please report the recorded inhibition in vivo at 30 mg/kg for `Oc1c(-c2ccccc2)nc2cnccn12` .
## Output 79

## Input Consider the compound shown here: `Oc1c(-c2ccc3ccccc3c2)nc2cnccn12` What is its recorded inhibition in vivo at 30 mg/kg?
## Output 57

## Input Which inhibition in vivo at 30 mg/kg is reported for this compound? `Cc1nc2cnccn2c1O`
## Output 49

## Input Endpoint output: inhibition in vivo at 30 mg/kg of `COc1ccc(-c2nc3cnccn3c2O)cc1` . Value?
## Output 85

## Input Item `COc1cc(C(C)=O)ccc1O` has what recorded inhibition in vivo at 30 mg/kg?
## Output 59

## Input // lookup inhibition in vivo at 30 mg/kg for `Oc1c(-c2ccc(F)cc2)nc2cnccn12`
## Output 37

## Input Entry `Cc1ccc(-c2nc3cnccn3c2O)cc1` has what inhibition in vivo at 30 mg/kg?
## Output 67

## Input Returns the measured inhibition in vivo at 30 mg/kg for the input compound. Input: `Oc1c(-c2ccc(-c3ccccc3)cc2)nc2cnccn12`
## Output 71

## Input # get_value(readout='inhibition in vivo at 30 mg/kg', item= `Oc1c(-c2ccc(Cl)cc2)nc2cnccn12` )
## Output 82
